# subject_of_test: PKR(R510Q) (Homo sapiens, UniProt P30613, R510Q)
# Sequence (P30613 whole entry R510Q): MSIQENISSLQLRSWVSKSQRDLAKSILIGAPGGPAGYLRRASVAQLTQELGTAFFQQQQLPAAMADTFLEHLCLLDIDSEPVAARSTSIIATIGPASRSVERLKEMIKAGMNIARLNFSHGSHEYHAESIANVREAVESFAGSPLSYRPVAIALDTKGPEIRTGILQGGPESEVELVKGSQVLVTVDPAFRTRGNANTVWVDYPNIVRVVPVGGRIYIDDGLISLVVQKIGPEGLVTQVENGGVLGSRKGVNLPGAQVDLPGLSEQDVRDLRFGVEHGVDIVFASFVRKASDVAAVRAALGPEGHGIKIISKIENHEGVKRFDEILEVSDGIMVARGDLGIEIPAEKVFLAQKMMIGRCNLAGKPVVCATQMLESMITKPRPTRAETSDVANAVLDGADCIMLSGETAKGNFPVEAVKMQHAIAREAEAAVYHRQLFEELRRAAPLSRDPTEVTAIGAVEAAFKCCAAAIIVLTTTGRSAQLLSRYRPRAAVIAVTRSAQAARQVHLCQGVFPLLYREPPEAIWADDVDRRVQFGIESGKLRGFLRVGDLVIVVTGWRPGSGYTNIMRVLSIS
# method: Luminescence Biochemical Assay (Kinase Glo Plus), PKR R510Q mutant
# condition_context: without FBP, read-out: AC50 LUM KGP woFBP AC50 μM gmean
value_type: AC50

[
  {
    "compound": "O=C(Cc1cccnc1)N1CC2=C(C1)CN(S(=O)(=O)c1ccccn1)C2",
    "measurement": "1 to 40 µM"
  },
  {
    "compound": "O=C(NCc1ccc(F)cc1)N1CC2=C(C1)CN(S(=O)(=O)c1ccccn1)C2",
    "measurement": "0.1 to 1 µM"
  },
  {
    "compound": "CN1CCOc2ccc(S(=O)(=O)N3CC4=C(CN(C(=O)[C@H]5CCCO5)C4)C3)cc21",
    "measurement": "1 to 40 µM"
  },
  {
    "compound": "CC(C)Oc1ccc(S(=O)(=O)N2CC3=C(CN(C(=O)[C@H](O)c4ccccc4)C3)C2)cc1",
    "measurement": "1 to 40 µM"
  },
  {
    "compound": "Cc1cccc(Cl)c1S(=O)(=O)N1CC2=C(CN(C(=O)[C@@H](O)c3ccccc3)C2)C1",
    "measurement": "1 to 40 µM"
  },
  {
    "compound": "Cc1cc(CNC(=O)N2CC3=C(C2)CN(S(=O)(=O)c2ccc(OC(F)F)cc2)C3)no1",
    "measurement": "0.1 to 1 µM"
  },
  {
    "compound": "COc1ccc(CNC(=O)N2CC3=C(C2)CN(S(=O)(=O)c2ccc(OC(F)F)cc2)C3)cc1",
    "measurement": "≤ 0.1 µM"
  },
  {
    "compound": "O=C([C@H](O)c1ccccc1)N1CC2=C(C1)CN(S(=O)(=O)c1cccc(F)c1)C2",
    "measurement": "0.1 to 1 µM"
  },
  {
    "compound": "Cc1nc(CC(=O)N2CC3=C(C2)CN(S(=O)(=O)c2ccc(OC(F)F)cc2)C3)cs1",
    "measurement": "1 to 40 µM"
  },
  {
    "compound": "O=C([C@H](O)c1ccc(F)cc1)N1CC2=C(C1)CN(S(=O)(=O)c1ccccn1)C2",
    "measurement": "0.1 to 1 µM"
  },
  {
    "compound": "COc1ccccc1CNC(=O)N1CC2=C(C1)CN(S(=O)(=O)c1ccc(F)cc1)C2",
    "measurement": "0.1 to 1 µM"
  },
  {
    "compound": "COc1cccc(CNC(=O)N2CC3=C(C2)CN(S(=O)(=O)c2ccc(F)cc2)C3)c1",
    "measurement": "0.1 to 1 µM"
  },
  {
    "compound": "O=C(C(O)c1ccc(F)c(F)c1)N1CC2=C(C1)CN(S(=O)(=O)c1ccc(OC(F)F)cc1)C2 (stereo not drawn)",
    "measurement": "1 to 40 µM"
  },
  {
    "compound": "O=C([C@H](O)c1ccc2c(c1)CNCC2)N1CC2=C(C1)CN(S(=O)(=O)c1ccc(OC(F)F)cc1)C2 (single isomer, unassigned)",
    "measurement": "≤ 0.1 µM"
  },
  {
    "compound": "O=C(NCc1ccc(F)cc1)N1CC2=C(C1)CN(S(=O)(=O)c1ccc(OC(F)F)cc1)C2",
    "measurement": "0.1 to 1 µM"
  },
  {
    "compound": "O=C([C@H](O)c1ccccc1)N1CC2=C(C1)CN(S(=O)(=O)c1ccc(Cl)cc1)C2",
    "measurement": "1 to 40 µM"
  },
  {
    "compound": "Cc1cc(CNC(=O)N2CC3=C(C2)CN(S(=O)(=O)c2ccccn2)C3)no1",
    "measurement": "1 to 40 µM"
  },
  {
    "compound": "COc1cccc(CNC(=O)N2CC3=C(C2)CN(S(=O)(=O)c2cccc4cnccc24)C3)c1",
    "measurement": "1 to 40 µM"
  },
  {
    "compound": "Cc1nn(C)c(Cl)c1S(=O)(=O)N1CC2=C(CN(C(=O)[C@H](C)c3ccccc3)C2)C1",
    "measurement": "1 to 40 µM"
  },
  {
    "compound": "O=C([C@H](O)c1ccccc1)N1CC2=C(C1)CN(S(=O)(=O)c1ccc(Cl)s1)C2",
    "measurement": "0.1 to 1 µM"
  },
  {
    "compound": "COc1ccccc1CNC(=O)N1CC2=C(C1)CN(S(=O)(=O)c1ccc3nsnc3c1)C2",
    "measurement": "1 to 40 µM"
  },
  {
    "compound": "O=C(C1OCCc2ccccc21)N1CC2=C(C1)CN(S(=O)(=O)c1ccc(OC(F)F)cc1)C2 (stereo not drawn)",
    "measurement": "1 to 40 µM"
  },
  {
    "compound": "O=C([C@H](O)c1ccccc1)N1CC2=C(C1)CN(S(=O)(=O)c1cccnc1C(F)(F)F)C2",
    "measurement": "1 to 40 µM"
  },
  {
    "compound": "Cc1cccc(S(=O)(=O)N2CC3=C(CN(C(=O)NCc4ccccc4F)C3)C2)n1",
    "measurement": "≤ 0.1 µM"
  },
  {
    "compound": "O=C(NCc1ccc(F)cc1)N1CC2=C(C1)CN(S(=O)(=O)c1ccc(F)cc1)C2",
    "measurement": "0.1 to 1 µM"
  },
  {
    "compound": "O=C(NCc1ccccc1F)N1CC2=C(C1)CN(S(=O)(=O)c1cccnc1)C2",
    "measurement": "0.1 to 1 µM"
  },
  {
    "compound": "CN1CCOc2ccc(S(=O)(=O)N3CC4=C(CN(C(=O)NCc5ccc(F)cc5)C4)C3)cc21",
    "measurement": "0.1 to 1 µM"
  },
  {
    "compound": "CN1CCOc2ccc([C@H](O)C(=O)N3CC4=C(C3)CN(S(=O)(=O)c3ccc(OC(F)F)cc3)C4)cc21 (single isomer, unassigned)",
    "measurement": "0.1 to 1 µM"
  },
  {
    "compound": "O=C(Cn1cnnn1)N1CC2=C(C1)CN(S(=O)(=O)c1cccnc1)C2",
    "measurement": "1 to 40 µM"
  },
  {
    "compound": "O=C(NCc1cccc(F)c1)N1CC2=C(C1)CN(S(=O)(=O)c1ccc3ncsc3c1)C2",
    "measurement": "1 to 40 µM"
  }
]
